The measured values listed here are drawn from ChEMBL document CHEMBL3352184.

Test system: HepG2
Experiment: Cytotoxicity against human HepG2 cells by MTT assay
Assay type: functional, cell-based
property.label: IC50
Just so you know, I need the unit written after the number.

Data request: Consider the molecule `C[C@@H]1O[C@@H](CC(=O)O)Cc2cc3c(c(O)c21)C(=O)C1=C(C3=O)[C@H]2C[C@@H](O[C@H]3CC[C@H](O)[C@H](C)O3)[C@@]1(O)[C@@H](C)O2` and give its measured IC50.
Data returned: 18.8 µM

Data request: `C[C@@H]1O[C@@H](CC(=O)O)Cc2cc3c(c(O)c21)C(=O)C1=C(C3=O)[C@H]2C[C@@H](O)[C@@]1(O)[C@@H](C)O2` , same question.
Data returned: 148 µM

Data request: `C[C@@H]1O[C@H]2CC(=O)O[C@H]2C2=C1C(=O)c1c(O)c3c(c(O)c1C2=O)[C@H]1C[C@@H](O)[C@]3(O)[C@@H](C)O1` , same question.
Data returned: 6.6 µM

Data request: C[C@@H]1O[C@H]2CC(=O)O[C@H]2C2=C1C(=O)c1c(O)c3c(c(O)c1C2=O)[C@H]1C[C@@H](O[C@H]2CC[C@H](O)[C@H](C)O2)[C@@]3(O)[C@@H](C)O1 [GRANATICIN B] , same question.
Data returned: 5.8 µM
